test system: M14 melanoma; assay: NCI tumour cell line growth inhibition, 48 h
measured.property: TGI

Query: Need TGI of COc1cc(OC)c2c(=O)cc(-c3ccccc3F)[nH]c2c1 , thanks.
Result: > 100 µM

Query: Need TGI of COc1cc(NC(C)=O)ccc1C(=O)N/N=C/c1ccc(Cl)cc1Cl , thanks.
Result: > 100 µM

Query: Need TGI of Oc1cc(Br)cc2cccnc12 , thanks.
Result: > 37.7 µM

Query: Need TGI of COc1ccc(C(=O)Cn2c(C(=O)/C=C/c3ccco3)nc3ccccc32)cc1 , thanks.
Result: > 100 µM

Query: Need TGI of c1ccc2c(c1)nc1n2CCCn2ccnc2-1 , thanks.
Result: > 100 µM

Query: Need TGI of CC1(C)O[C@@H]2[C@@H](COC(=O)c3ccccc3)C[C@@H](C#N)[C@@H]2O1 , thanks.
Result: > 100 µM

Query: Need TGI of CC(=O)[CH-]C(=O)c1ccccc1.CC(=O)[CH-]C(=O)c1ccccc1.[Eu+3].[OH-].[OH3+] , thanks.
Result: > 100 µM

Query: Need TGI of COc1ccc(C2CC(c3ccccc3)=Nc3c(-c4ccccc4)nnn32)cc1 (configuration not stated) , thanks.
Result: > 100 µM

Query: Need TGI of COc1cc(C)c(Cl)cc1C1=NN(c2ccc(S(N)(=O)=O)cc2)C(/C=C/c2ccccc2)C1 (configuration not stated) , thanks.
Result: 24.3 µM

Query: Need TGI of N#Cc1c(NN)nc(NN)c(C#N)c1-c1ccccc1 , thanks.
Result: > 100 µM

Query: Need TGI of Cc1cc2nc3c4cc(N)ccc4n(CCN(C)C)c3nc2cc1C , thanks.
Result: 2.88 µM

Query: Need TGI of C=C1C(=O)O[C@H]2[C@H]1CC/C(Cn1cc(-c3cc(C(F)(F)F)cc(C(F)(F)F)c3)nn1)=C\CC[C@@]1(C)O[C@@H]21 , thanks.
Result: 1.55 µM

Query: Need TGI of Oc1ccccc1/C=N/Nc1nc(N/N=C/c2ccccc2O)nc(N/N=C/c2ccccc2O)n1 , thanks.
Result: > 100 µM

Query: Need TGI of c1ccc2[nH]c(-c3ccc(NN=Nc4ccncc4)cc3)nc2c1 , thanks.
Result: > 100 µM

Query: Need TGI of FC(F)(Sc1ccccn1)c1nc2ccccc2o1 , thanks.
Result: > 100 µM

Query: Need TGI of CCOc1ccccc1NC(=O)CC1SC(=Nc2ccc([N+](=O)[O-])cc2)NC1=O (configuration not stated) , thanks.
Result: 50.9 µM

Query: Need TGI of COC(=O)c1sc2ncc3c(c2c1N)CCCCCC3 , thanks.
Result: > 100 µM
